# Tested on: Collinsella aerofaciens
# assay.protocol: growth AUC relative to DMSO control (median of replicates) (fraction); higher = more growth (less inhibition), active = hit call of the paper;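 active = AUC reduced over 20% with Padj below 0.05 in at least 2 of 3 replicates; inactive = otherwise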
# protocol.conditions: 20 µM; 24 h
The reply should name one outcome from active, inactive

Worked cases, answers included:
CCNc1nc(Cl)nc(NCC)n1	inactive
COP(=S)(OC)SCN1C(=O)c2ccccc2C1=O	inactive

# input For this molecule, state the assay outcome: CS(=O)(=O)c1ccc(C(=O)C2C(=O)CCCC2=O)c(Cl)c1COCC(F)(F)F
# output inactive

# input Tell me the recorded outcome of this test for CSc1nnc(C(C)(C)C)c(=O)n1N .
# output inactive

# input Given CC1=C(C(=O)Nc2ccccc2)S(=O)(=O)CCO1 , state the outcome it received in this test.
# output inactive

# input What call does the record list for Cc1ccc2nc3sc(=O)sc3nc2c1 ?
# output inactive

# input Status in this test for CCOP(=S)(OCC)Oc1nc(Cl)c(Cl)cc1Cl ?
# output inactive

# input Query: recorded result category for c1cc2c3c(cccc3c1)CC2 in this test
# output inactive

====

In this section, each of the compounds is paired with its reported growth AUC.
# Tested on: Lactobacillus paracasei
# assay.protocol: growth AUC relative to DMSO control (median of replicates) (fraction); higher = more growth (less inhibition), active = hit call of the paper
# protocol.conditions: 20 µM; 24 h
Give the figure by itself; no unit, no explanation.

COC(=O)Nc1cccc(OC(=O)Nc2cccc(C)c2)c1	0.987

# input State its growth AUC: CCCCN(CCCC)N=O
# output 1.02

# input Supply measured growth AUC of COP(=O)(OC)OC1=C(Cl)C2C=CCC12 (centres undefined) in your reply.
# output 1.02

# input Please give the documented growth AUC of O=P(O)(O)CCCl
# output 1.01

# input Write down growth AUC measured for item COP1(=S)OCc2ccccc2O1 (centres undefined)
# output 0.997

# input Entry CON(C)C(=O)Nc1ccc(Br)c(Cl)c1 needs its growth AUC filled in; supply it.
# output 0.989

# input Please report the measured growth AUC for CCOP(=S)(OCC)Oc1cc(C)nc(N(CC)CC)n1
# output 1.02

# input Read off the recorded growth AUC for COC(=O)[C@@H](C)N(C(=O)Cc1ccccc1)c1c(C)cccc1C
# output 0.979

# input Check the records and state growth AUC for Clc1cc(Cl)c(Cl)cc1Cl
# output 0.991

# input Quick one: give measured growth AUC for Cc1c(COC(=O)[C@@H]2[C@H](/C=C(\Cl)C(F)(F)F)C2(C)C)cccc1-c1ccccc1
# output 0.982

====

# Test system: Akkermansia muciniphila
# assay.protocol: growth AUC relative to DMSO control (median of replicates) (fraction); higher = more growth (less inhibition), active = hit call of the paper
# protocol.conditions: 20 µM; 24 h
result.type: growth AUC
Answer with the value's number alone.

COP(=S)(OC)Oc1ccc(C#N)cc1	1.1

# input Kindly indicate its recorded growth AUC. Item: CSc1nc(N=[N+]=[N-])nc(NC(C)C)n1
# output 0.963

# input Give growth AUC for the following compound: O=c1[nH]c2c(c(=O)n1C1CCCCC1)CCC2
# output 0.895

# input Note down growth AUC recorded for CCO/N=C(\CC)C1=C(O)CC(c2c(C)cc(C)cc2C)CC1=O (stereo not drawn)
# output 1.1

# input Write down growth AUC measured for item COC(=O)NS(=O)(=O)c1ccc(N)cc1
# output 1

# input Identify the reported growth AUC for the following entry. C#CCN1CC(=O)N(COC(=O)C2C(C=C(C)C)C2(C)C)C1=O (mixture of isomers)
# output 0.804

# input Fill in growth AUC for record CC1(C(=O)Nc2ccc(O)c(Cl)c2Cl)CCCCC1
# output 0.827

# input Tell us which growth AUC value is on record for N#Cc1c(Cl)cccc1Cl
# output 0.866

====

# Test system: Escherichia coli ED1a
# assay.protocol: growth AUC relative to DMSO control (median of replicates) (fraction); higher = more growth (less inhibition), active = hit call of the paper
# protocol.conditions: 20 µM; 24 h
result.type: growth AUC
No unit in the answer, please; the number alone is enough.

Below: 5 compounds and their reported growth AUC.
c1ccc2c(c1)-c1cccc3cccc-2c13	0.941
O=C(NCCc1ncc(C(F)(F)F)cc1Cl)c1ccccc1C(F)(F)F	1.01
C[C@H]1[C@H](c2ccc(Cl)cc2)SC(=O)N1C(=O)NC1CCCCC1	1
CCOP(=S)(OCC)Oc1cc(-c2ccccc2)on1	0.993
N#Cc1nn(-c2c(Cl)cc(C(F)(F)F)cc2Cl)c(N)c1SC(F)(F)F	1.02

# input Tell me its growth AUC given CN(C)C(=O)Nc1cccc(OC(=O)NC(C)(C)C)c1 as the entry.
# output 0.995

# input Note down growth AUC recorded for CCC(C)Nc1c([N+](=O)[O-])cc(C(C)(C)C)cc1[N+](=O)[O-] (centres undefined)
# output 1.01

# input Could you please provide reported growth AUC for O=S1(=O)OCC2C(CO1)C1(Cl)C(Cl)=C(Cl)C2(Cl)C1(Cl)Cl (centres undefined) ? Thanks!
# output 0.991

====

Here the recorded growth AUC is given for each entry.
# System: Roseburia intestinalis
# assay.protocol: growth AUC relative to DMSO control (median of replicates) (fraction); higher = more growth (less inhibition), active = hit call of the paper
# protocol.conditions: 20 µM; 24 h

The cases that follow already have their growth AUC on record.
O=C1C(Cl)=C(Cl)C(=O)C(Cl)=C1Cl	0.995 (inactive)
CCCCOC(=O)[C@@H](C)Oc1ccc(Oc2ccc(C#N)cc2F)cc1	0.997 (inactive)
CN(C)C(=O)Nc1cccc(C(F)(F)F)c1	0.979 (inactive)
CCOC(=O)c1cn2nc(OP(=S)(OCC)OCC)cc2nc1C	0.981 (inactive)
Cc1occc1C(=O)Nc1ccccc1	0.996 (inactive)
CCOc1ccc(C(C)(C)COCc2cccc(Oc3ccccc3)c2)cc1	0.975 (inactive)
COC(=O)[C@@H](C)N(C(=O)Cc1ccccc1)c1c(C)cccc1C	1.01 (inactive)
Cc1cnc(C2=NC(C)(C(C)C)C(=O)N2)c(C(=O)O)c1 (stereo unspecified)	0.997 (inactive)

# input Give recorded growth AUC. CNC(=O)/C(=N\OC)c1ccccc1Oc1ccccc1
# output 0.995 (inactive)

# input Return growth AUC for the following molecule: Oc1ccc(Cc2ccc(O)cc2)cc1
# output 0.999 (inactive)

# input // fetch growth AUC given entry COc1cc(OC)nc(NC(=O)NS(=O)(=O)c2ncccc2C(=O)N(C)C)n1
# output 1.01 (inactive)

====

Quick list: growth AUC per entry.
# Test system: Bacteroides dorei
# assay.protocol: growth AUC relative to DMSO control (median of replicates) (fraction); higher = more growth (less inhibition), active = hit call of the paper
# protocol.conditions: 20 µM; 24 h
The answer should be written as a number, with no unit following it.

Consider the reported growth AUC for these compounds:
CCS(=O)c1c(C#N)nn(-c2c(Cl)cc(C(F)(F)F)cc2Cl)c1N (stereo unspecified)	1.01
C/C(=N/Nc1nc(C)cc(C)n1)c1ccccc1C	1
COCCN(C(=O)CCl)c1c(C)cccc1C	1.02
CCOP(=S)(OCC)Oc1ccc(=O)n(-c2ccccc2)n1	0.977
CC(Oc1ccc(Oc2ccc(Cl)cc2Cl)cc1)C(=O)O (racemic)	0.997

Next compound, please.
# input Please look at this compound and report its growth AUC: COP(=S)(Oc1cc(Cl)c(Br)cc1Cl)c1ccccc1 (stereo unspecified)
# output 1.02

====

Each record here notes measured growth AUC.
# System: Escherichia coli IAI1
# assay.protocol: growth AUC relative to DMSO control (median of replicates) (fraction); higher = more growth (less inhibition), active = hit call of the paper
# protocol.conditions: 20 µM; 24 h

Please review the following examples before continuing.
CCC1(C(=O)NC(C)c2ccc(Cl)cc2)C(C)C1(Cl)Cl (stereo not given)	1 (inactive)
COc1nc(C)nc(NC(=O)NS(=O)(=O)c2ccccc2CCC(F)(F)F)n1	0.976 (inactive)
COC(C)(C)CCCC(C)C/C=C/C(C)=C/C(=O)OC(C)C (stereo not given)	1 (inactive)
COc1cnc(OC)n2nc(NS(=O)(=O)c3c(OCC(F)F)cccc3C(F)(F)F)nc12	1.02 (inactive)

Now for another entry.
# input Supply growth AUC measured with Escherichia coli IAI1 for CC(C)(C)N(NC(=O)c1ccc(Cl)cc1)C(=O)c1ccccc1 .
# output 1.01 (inactive)

====

# System: Lactobacillus gasseri
# assay.protocol: growth AUC relative to DMSO control (median of replicates) (fraction); higher = more growth (less inhibition), active = hit call of the paper
# protocol.conditions: 20 µM; 24 h
Recorded measurements of growth AUC, one per entry
// print number alone

O=[N+]([O-])c1ccc(Oc2ccc(C(F)(F)F)cc2[N+](=O)[O-])cc1	0.977
CNC(=O)O/N=C/C(C)(C)S(C)(=O)=O	1.05
CC(C)N1C(=O)c2ccccc2NS1(=O)=O	0.945

Proceed to the following item.
# input Fill in growth AUC for record COP(=S)(OC)SCC(=O)N(c1ccc(Cl)cc1)C(C)C
# output 1.03
